- tested on: T1, His10/Avi Human IL33-01 (human)
- T1 chain: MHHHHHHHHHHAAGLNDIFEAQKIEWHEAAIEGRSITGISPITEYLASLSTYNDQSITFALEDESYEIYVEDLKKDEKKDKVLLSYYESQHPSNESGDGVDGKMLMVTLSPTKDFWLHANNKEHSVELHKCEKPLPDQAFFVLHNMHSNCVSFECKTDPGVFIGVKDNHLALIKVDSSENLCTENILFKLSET
- assay details: cell-based or functional assay
IC50, Huvec IL-8 assay vs. His Avi IL-33 for assorted binders
Express your answer in pM, writing the number without its unit.

33_640076-4 IgG1 (antibody, V domains shown, IgG1) VH: EVQLLESGGGLVQPGGSLRLSCAASGFTFSSYAMSWVRQAPGKGLEWVSGISAIDQSTYYADSVKGRFTISRDNSKNTLYLQMNSLRAEDTAVYYCARDLWMENWVGGLRYPFGYWGQGTMVTVSS VL: SYVLTQPPSVSVSPGQTASITCSGERMGDKYAAWYQQKPGQSPVLVIYRDTKRPSGIPERFSGSNSGNTATLTISGTQAMDEADYYCEVKKSDTGVFGGGTKVTVL :: 32
33_640082-7 IgG1 (antibody, V domains shown, IgG1) VH: EVQLLESGGGLVQPGGSLRLSCAASGFTFSSYAMSWVRQAPGKGLEWVSGISAIDQSTYYADSVKGRFTISRDNSKNTLYLQMNSLRAEDTAVYYCARQKFMQLWGGGLRYPFGYWGQGTMVTVSS VL: SYVLTQPPSVSVSPGQTASITCSGERMGDKYAAWYQQKPGQSPVLVIYRDTKRPSGIPERFSGSNSGNTATLTISGTQAMDEADYYCGVLKQDTGVFGGGTKVTVL :: 31
33_640087-7 IgG1 (antibody, V domains shown, IgG1) VH: EVQLLESGGGLVQPGGSLRLSCAASGFTFSSYAMSWVRQAPGKGLEWVSGISAIDQSTYYADSVKGRFTISRDNSKNTLYLQMNSLRAEDTAVYYCARQKFMQLWGGGLRYPFGYWGQGTMVTVSS VL: SYVLTQPPSVSVSPGQTASITCSGEGMGDKYAAWYQQKPGQSPVLVIYRDTKRPSGIPERFSGSNSGNTATLTISGTQAMDEADYYCGVIQDNTGVFGGGTKVTVL :: 25

Switching to the query record.
The reported value for 33_640237 IgG1 (antibody, V domains shown, IgG1; also called ZZ1M37-E06) VH: EVQLLESGGGLVQPGGSLRLSCAASGFTFSSYAMSWVRQAPGKGLEWVSGIADDFTSTYYADPVKGRFTISRDNSKNTLYLQMNSLRAEDTAVYYCARDLWMMNYAGGLRYPFGYWGQGTTVTVSS VL: SYVLTQPPSVSVSPGQTASITCSGERMGDKYAAWYQQKPGQSPVLVIYRDTKRPSGIPERFSGSNSGNTATLTISGTQAIDEADYYCGVLKQDTGVFGGGTKVTVL in terms of IC50, Huvec IL-8 assay vs. His Avi IL-33 is 56

Every entry's value here was drawn from patent US20200353078A1.
